# assay-text: Stability of (Z)-Endoxifen in acetone (HPLC peak table over time)
# Type: physicochemical
# condition-label: acetone, 40° C., T0
attribute-measured: HPLC peak RT 22.76, RRT 1.40 (%)
One number for each entry, in %.

Form field: reported HPLC peak RT 22.76, RRT 1.40 of CC/C(=C(\c1ccc(O)cc1)c1ccc(OCCNC)cc1)c1ccccc1 [(Z)-endoxifen] 0.06

###

# assay-text: Solvent mixture solubility tests of (Z)-endoxifen
# Type: physicochemical
# condition-label: acetone/acetonitrile 50/50 v/v, organic solvent or mixture, thermodynamic from solid, acetone/acetonitrile 50/50 v/v; 40 mg/mL; high temperature; read-out: Solubility HT (40 mg/mL): Sol. HT
attribute-measured: solubility

Endpoint output: solubility of CC/C(=C(\c1ccc(O)cc1)c1ccc(OCCNC)cc1)c1ccccc1 [(Z)-endoxifen] . Value? < 40 mg/mL

###

# assay-text: Solubility testing of (Z)-endoxifen in single solvents
# Type: physicochemical
# condition-label: acetonitrile, organic solvent or mixture, thermodynamic from solid, acetonitrile, high temperature; read-out: Solubility
attribute-measured: solubility

Would you kindly share the measured solubility for CC/C(=C(\c1ccc(O)cc1)c1ccc(OCCNC)cc1)c1ccccc1 [(Z)-endoxifen] ? 20 to 100 mg/mL

###

# assay-text: Stability of (Z)-Endoxifen in acetone (HPLC peak table over time)
# Type: physicochemical
# condition-label: acetone at reflux (56° C.), 27 hr
attribute-measured: HPLC peak RT 27.21, RRT 1.80 (%)
One number for each entry, in %.

Name the reported HPLC peak RT 27.21, RRT 1.80 value associated with the compound CC/C(=C(\c1ccc(O)cc1)c1ccc(OCCNC)cc1)c1ccccc1 [(Z)-endoxifen] 0.04

###

# assay-text: Stability of (Z)-Endoxifen in acetone (HPLC peak table over time)
# Format: physicochemical
# condition-label: acetone, 40° C., 28 hr
attribute-measured: HPLC peak RT 14.68, RRT 0.90 (%)
One number for each entry, in %.

Entry CC/C(=C(\c1ccc(O)cc1)c1ccc(OCCNC)cc1)c1ccccc1 [(Z)-endoxifen] : reported HPLC peak RT 14.68, RRT 0.90 = ? 0.04

###

# assay-text: Stability of (Z)-Endoxifen in acetone (HPLC peak table over time)
# Assay type: physicochemical
# condition-label: acetone at reflux (56° C.), 19 hr
attribute-measured: HPLC peak RT 27.21, RRT 1.80

Reported HPLC peak RT 27.21, RRT 1.80, compound CC/C(=C(\c1ccc(O)cc1)c1ccc(OCCNC)cc1)c1ccccc1 [(Z)-endoxifen] : ____ 0.04%

###

# assay-text: Stability of (Z)-Endoxifen in acetone (HPLC peak table over time)
# Type: physicochemical
# condition-label: acetone, 40° C., T0
attribute-measured: HPLC peak RT 3.14, RRT 0.19 (%)
One number for each entry, in %.

GET /values?readout=HPLC peak RT 3.14, RRT 0.19&item= CC/C(=C(\c1ccc(O)cc1)c1ccc(OCCNC)cc1)c1ccccc1 [(Z)-endoxifen] 0.16

###

# assay-text: Stability of (Z)-Endoxifen in acetone (HPLC peak table over time)
# Assay type: physicochemical
# condition-label: acetone, 40° C., 4 hr
attribute-measured: HPLC peak RT 22.76, RRT 1.40 (%)
Give bare numbers, in %.

Which HPLC peak RT 22.76, RRT 1.40 is reported for this compound? CC/C(=C(\c1ccc(O)cc1)c1ccc(OCCNC)cc1)c1ccccc1 [(Z)-endoxifen] 0.08

Values were extracted from patent US20250066286A1.
